Test system: ER-alpha MCF7
measurement_notes: ER-alpha MCF7 HCS EC50; stated as measured by in vitro cell proliferation assays of Examples 902 and 903
Assay type: cell-based
experimental_parameters: Homo sapiens, MCF7, MCF7 cells; Table 2
property_name: EC50 (nM)

>>> result("C[C@@H]1Cc2c([nH]c3ccccc23)[C@@H](c2c(F)cc(NCCN3CC(CF)C3)cc2F)N1CC(C)(F)CO (stereo partly shown) [Example 320]")
0.27

[P] C[C@@H]1Cc2c([nH]c3ccc(F)cc23)[C@@H](c2c(F)cc(NC3CN(CCCF)C3)cc2F)N1CC(F)F [Example 389]
[Q] C[C@@H]1Cc2c([nH]c3ccc(F)cc23)[C@@H](c2c(F)cc(OCCN3CC(CF)C3)cc2F)N1CC(F)F [Example 383]
[R] C[C@H]1Cc2c([nH]c3ccc(F)cc23)[C@H](c2c(F)cc(NC3CN(CCCF)C3)cc2F)N1CC(F)(F)F [Example 373]
Enquiry: Order the items by recorded EC50; the first position goes to the largest value. Please reply with the labels ordered as requested. Many thanks.
Return: R, Q, P

* * *

Test system: ER-alpha MCF7
measurement_notes: ER-alpha MCF7 HCS EC50; stated as measured by in vitro cell proliferation assays of Examples 902 and 903
Format: cell-based
experimental_parameters: Homo sapiens, MCF7, MCF7 cells; Table 2
pEC50: −log10 of the molar value.
property_name: pEC50

Solved entries (count: 2):
>>> result("C[C@@H]1Cc2c([nH]c3ccccc23)[C@@H](c2c(F)cc(OCCN3CC(CF)C3)cc2F)N1C(=O)CN(C)C [Example 223]")
7.42
>>> result("C[C@H]1Cc2c([nH]c3cc(F)ccc23)[C@H](c2c(F)cc(NC3CN(CCCF)C3)cc2F)N1CC(F)(F)F [Example 397]")
7.48

[a] C[C@@H]1Cc2c([nH]c3ccc(F)cc23)[C@@H](c2c(F)cc(NC3CN(CCCF)C3)cc2F)N1C[C@@](C)(F)CO [Example 431]
[b] C[C@H](CN1[C@H](c2c(F)cc(NC3CN(CCCF)C3)cc2F)c2[nH]c3ccccc3c2C[C@H]1C)C(=O)O [Example 354]
Enquiry: # query: argmin of pEC50 over a and b Refer to your chosen item by its label in the answer.
Return: b
(b: 9.00, a: 10.03)

* * *

Tested on: ER-alpha MCF7
measurement_notes: ER-alpha MCF7 HCS EC50; stated as measured by in vitro cell proliferation assays of Examples 902 and 903
Assay type: cell-based
experimental_parameters: Homo sapiens, MCF7, MCF7 cells; Table 2
pEC50: −log10 of the molar value.
property_name: pEC50

Solved entries (count: 3):
>>> result("C[C@@H]1Cc2c([nH]c3ccccc23)[C@@H](c2c(F)cc(OCCN3CC(CF)C3)cc2F)N1C(=O)C1CCO1 (some centres unmarked) [Example 219]")
7.46
>>> result("C[C@@H]1Cc2c([nH]c3ccccc23)[C@@H](c2c(F)cc(OCCN3CC(CF)C3)cc2F)N1C[C@](C)(O)CO [Example 271]")
8.30
>>> result("C[C@@H]1Cc2c([nH]c3ccccc23)[C@H](c2c(F)cc(OCCN3CC(CF)C3)cc2F)N1CC(C)(C)C(=O)O [Example 378]")
7.55

[I] C[C@@H]1Cc2c([nH]c3c(F)cccc23)[C@@H](c2c(F)cc(OCCN3CC(CF)C3)cc2F)N1CC(C)(C)F [Example 260]
[II] C[C@@H]1Cc2c([nH]c3ccccc23)[C@@H](c2c(F)cc(OC3CN(CCCCF)C3)cc2F)N1CC(C)(C)F [Example 337]
[III] C[C@@H]1Cc2c([nH]c3ccccc23)[C@@H](c2c(F)cc(OCCN3CC(CF)C3)cc2F)N1 [Example 220]
[IV] C[C@@H]1Cc2c([nH]c3ccccc23)[C@@H](c2c(F)cc(OCCN3CC(CF)C3)cc2F)N1C(=O)C1CCCC1 [Example 149]
Enquiry: Would you mind ranking these molecules by ascending pEC50? Please reply with the labels ordered as requested. Many thanks.
Return: III, IV, I, II

[A] C[C@@H]1Cc2c([nH]c3ccccc23)[C@@H](c2c(F)cc(OCCN3CC(CF)C3)cc2F)N1CC(C)(C)C [Example 147]
[B] C[C@@H]1Cc2c([nH]c3ccccc23)[C@@H](c2c(F)cc(OC3CN(CC4CCCCC4)C3)cc2F)N1CC(C)(C)F [Example 209]
[C] C[C@@H]1Cc2c([nH]c3ccccc23)[C@@H](c2c(F)cc(OCCN3CC(CF)C3)cc2F)N1C(=O)C1CC1F (some centres unmarked) [Example 183]
[D] C[C@@H]1Cc2c([nH]c3ccccc23)[C@@H](c2c(F)cc(NCCN3CC(CF)C3)cc2F)N1S(C)(=O)=O [Example 326]
Enquiry: Order the items by recorded pEC50; the first position goes to the largest value. Please reply with the labels ordered as requested. Many thanks.
Return: D, A, C, B

* * *

Test system: ER-alpha MCF7
measurement_notes: ER-alpha MCF7 HCS EC50; stated as measured by in vitro cell proliferation assays of Examples 902 and 903
Type: cell-based
experimental_parameters: Homo sapiens, MCF7, MCF7 cells; Table 2
property_name: EC50 (nM)

Solved entries (count: 2):
>>> result("CC(C)(F)CN1[C@H](CF)Cc2c([nH]c3ccccc23)[C@H]1c1c(F)cc(OCCN2CC(CF)C2)cc1F")
0.0973
>>> result("C[C@@H]1Cc2c([nH]c3c(F)cc(F)cc23)[C@@H](c2c(F)cc(OC3CN(CCCF)C3)cc2F)N1CC(C)(C)F")
0.5

[a] C[C@@H]1Cc2c([nH]c3ccc(Cl)cc23)[C@@H](c2c(F)cc(OC3CN(CCCF)C3)cc2F)N1CC(C)(C)F
[b] C[C@@H]1Cc2c([nH]c3ccccc23)[C@H](c2ccc(OCCN3CC(CF)C3)cc2F)N1S(C)(=O)=O
Enquiry: Lab note: record which item had the higher EC50, a or b . Refer to your chosen item by its label in the answer.
Return: b

* * *

Tested on: ER-alpha MCF7
measurement_notes: ER-alpha MCF7 HCS EC50; stated as measured by in vitro cell proliferation assays of Examples 902 and 903
Type: cell-based
experimental_parameters: Homo sapiens, MCF7, MCF7 cells; Table 2
property_name: EC50 (nM)

Solved entries (count: 5):
>>> result("C[C@@H]1Cc2c([nH]c3ccccc23)[C@@H](c2c(F)cc(OCCN3CC(CF)C3)cc2F)N1CC1(F)COC1")
0.114
>>> result("CCS(=O)(=O)N1[C@H](c2ccc(OCCN3CC(CF)C3)cc2)c2[nH]c3ccccc3c2C[C@H]1C")
0.198
>>> result("C[C@@H]1Cc2c([nH]c3ccccc23)[C@@H](c2c(F)cc(OC3CN(CC4CCCC4)C3)cc2F)N1CC(C)(C)F")
2
>>> result("C[C@@H]1Cc2c([nH]c3ccccc23)[C@@H](c2c(F)cc(OCCN3CC(CF)C3)cc2F)N1CC(C)(F)CO (stereo partly drawn)")
0.01
>>> result("C[C@@H]1Cc2c([nH]c3ccccc23)[C@@H](c2c(F)cc(NC3CN(CCCF)C3)cc2F)N1C[C@H](C)C(=O)O")
8

[A] C[C@H]1Cc2c([nH]c3cccc(F)c23)[C@H](c2c(F)cc(NC3CN(CCCF)C3)cc2F)N1CC(F)(F)CO
[B] C[C@@H]1Cc2c([nH]c3ccccc23)[C@@H](c2c(F)cc(OC3CN(C[C@@H]4C[C@@H]4F)C3)cc2F)N1CC(C)(C)F
[C] C[C@@H]1Cc2c([nH]c3ccc(F)cc23)[C@@H](c2c(F)cc(OC3CN(CCCF)C3)cc2F)N1C[C@](C)(F)CO
[D] C[C@@H]1Cc2c([nH]c3ccccc23)[C@@H](c2c(F)cc(OCCN3CC(CF)C3)cc2F)N1C(=O)C1CCC1
[E] C#CCN1CC(Oc2cc(F)c([C@@H]3c4[nH]c5ccccc5c4C[C@@H](C)N3CC(C)(C)F)c(F)c2)C1
Enquiry: Order the items by recorded EC50; the first position goes to the largest value. Please reply with the labels ordered as requested. Many thanks.
Return: A, D, B, C, E

[P] C[C@@H]1Cc2c([nH]c3ccccc23)[C@@H](c2c(F)cc(OC3CN(CCCF)C3)cc2F)N1C(=O)C1(F)CC1
[Q] C[C@@H]1Cc2c([nH]c3ccccc23)[C@@H](c2c(F)cc(NCCN3CC(CF)C3)cc2F)N1C[C@](C)(F)CO
Enquiry: # query: argmin of EC50 over P and Q Refer to your chosen item by its label in the answer.
Return: Q

* * *

Tested on: ER-alpha MCF7
measurement_notes: ER-alpha MCF7 HCS EC50; stated as measured by in vitro cell proliferation assays of Examples 902 and 903
Assay type: cell-based
experimental_parameters: Homo sapiens, MCF7, MCF7 cells; Table 1
pEC50: −log10 of the molar value.
property_name: pEC50

>>> result("C[C@@H]1Cc2c([nH]c3ccccc23)[C@@H](c2c(F)cc(OCCN3CC(CF)C3)cc2F)N1C1COC1 [Example 116]")
7.38

[A] C[C@@H]1Cc2c([nH]c3ccccc23)[C@@H](c2ccc(OCCN3CC(CF)C3)cc2F)N1CC(C)(C)F [Example 120]
[B] C[C@@H]1Cc2c([nH]c3ccccc23)[C@@H](c2c(F)cc(OCCN3CC(CF)C3)cc2F)N1CC1(C)COC1 [Example 114]
Enquiry: # query: argmin of pEC50 over A and B Refer to your chosen item by its label in the answer.
Return: B
(B: 9.15, A: 10.25)
